These measurements were taken from patent US10316049B2.

Biological target: TBK1 (Homo sapiens, UniProt Q9UHD2)
Construct: TBK1 and IKKε were expressed and purified as full length recombinant proteins; made in house
Sequence (Q9UHD2 1-729): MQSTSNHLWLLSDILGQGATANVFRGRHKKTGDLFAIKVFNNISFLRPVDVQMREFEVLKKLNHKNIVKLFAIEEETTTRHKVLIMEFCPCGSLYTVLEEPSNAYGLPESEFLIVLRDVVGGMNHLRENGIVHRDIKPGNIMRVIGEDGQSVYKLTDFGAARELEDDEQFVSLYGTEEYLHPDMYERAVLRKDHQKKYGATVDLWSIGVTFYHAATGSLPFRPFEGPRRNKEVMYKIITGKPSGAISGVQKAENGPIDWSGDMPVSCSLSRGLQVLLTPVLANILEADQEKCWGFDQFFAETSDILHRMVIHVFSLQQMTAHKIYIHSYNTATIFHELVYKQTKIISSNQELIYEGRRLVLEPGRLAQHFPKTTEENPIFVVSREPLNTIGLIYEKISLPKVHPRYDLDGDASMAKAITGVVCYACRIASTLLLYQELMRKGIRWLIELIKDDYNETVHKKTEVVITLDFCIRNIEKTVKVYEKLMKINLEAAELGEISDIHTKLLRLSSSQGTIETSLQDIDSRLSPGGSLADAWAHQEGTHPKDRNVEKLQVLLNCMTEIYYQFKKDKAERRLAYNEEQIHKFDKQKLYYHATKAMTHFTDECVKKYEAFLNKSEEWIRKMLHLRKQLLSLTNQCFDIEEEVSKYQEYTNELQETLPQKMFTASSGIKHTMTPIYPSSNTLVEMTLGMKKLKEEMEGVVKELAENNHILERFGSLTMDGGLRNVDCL
Experiment: TR-FRET enzymatic activity assay, TBK1; note: full length recombinant TBK1 at 2.5 nM
Assay type: biochemical
quantity: IC50 (nM)

Return value of IC50 for input `C[C@H]1C[C@@H](Oc2ccc(-c3cc(NC(=O)C4CC4)ncn3)cc2C#N)CCN1C(=O)CO` , no commentary. 107

Tell me IC50 reported for `N#Cc1cc(-c2ccnc(NC(=O)[C@@H]3C[C@H]3C(N)=O)c2)ccc1O[C@H]1CCN(C(=O)CO)C[C@H]1F` 108

Give the reported IC50 for this compound. `N#Cc1cc(-c2ccnc(NC(=O)[C@@H]3C[C@@H]3CO)c2)ccc1O[C@H]1CCN(C(=O)CO)C[C@H]1F` 99.3
